test system: MDA-N; experiment: NCI tumour cell line growth inhibition, 48 h
The source made the active and inactive calls. Rule as the data show it: active = GI50 up to about 1.1 µM and inactive = higher.
# GI50 annotations

item_smiles	GI50
N#Cc1ccc(-n2c3ccccc3c3ccc4c(c32)C(=O)C=CC4=O)cc1	4.99 µM (inactive)
C#C[C@@H](OC(=O)c1ccc([N+](=O)[O-])cc1)[C@@H]1C[C@H]2O[C@@H]([C@H](C/C=C/CC)OC(=O)c3ccc([N+](=O)[O-])cc3)C[C@H]2O1	> 100 µM (inactive)
O=c1c2cc(I)ccc2nc(SCc2nncs2)n1Cc1ccccc1	23 µM (inactive)
C#CC(O)(c1nc2ccccc2s1)c1nc2ccccc2s1	21.2 µM (inactive)
Cc1nc(-c2ccccc2)cn2c1nc1ccccc12	21.8 µM (inactive)

---

system: SK-MEL-2; test: NCI tumour cell line growth inhibition, 48 h
Calls of active or inactive are those of the source. No stated cut-off is given here; in the data, active = GI50 up to about 1.1 µM and inactive = higher.

compound	GI50
O=C(O)[C@@]1(Cc2ccc(O)cc2)C[C@@H]2Cc3ccccc3N2N1	> 100 µM (inactive)
COc1ccc(N2C(=O)CC(Cl)C2=O)cc1 (stereo not given)	> 100 µM (inactive)
CC(C)(C)CC(C)(C)c1cc2c(O)c(c1)Cc1cc(C(C)(C)CC(C)(C)C)cc(c1O)Cc1cc(C(C)(C)CC(C)(C)C)cc(c1O)Cc1cc(C(C)(C)CC(C)(C)C)cc(c1O)Cc1cc(C(C)(C)CC(C)(C)C)cc(c1O)Cc1cc(C(C)(C)CC(C)(C)C)cc(c1O)C2	> 100 µM (inactive)
CCOC(=O)/C(=C\NCC(OCC)OCC)c1nc2ccccc2[nH]1	22.3 µM (inactive)
CC[C@@]1(C[C@H]2C[C@@]3(C(=O)OC)c4[nH]c5ccccc5c4CCN3C2=O)COC2(CCCCC2)O1	32.2 µM (inactive)
O=C1c2c(Br)sc(Br)c2[C@@H](Cl)[C@H]1Cl	18.9 µM (inactive)
N/C(=N\NC(=O)c1nc2ccccc2s1)c1ccccn1	19.5 µM (inactive)
C/C(=N\NC(=O)CC#N)c1c(O)cc(C)oc1=O	> 100 µM (inactive)
CCSC1=C(C)N(/C=N/C(C)(C)C)CC1	> 100 µM (inactive)
N#C[BH2-][n+]1cn(C2CC(O)C(COP(=O)(O)OC3CC(n4cnc5c(=O)[nH]c(N)nc54)OC3CO)O2)c2nc(N)[nH]c(=O)c21 (stereo not given)	> 100 µM (inactive)
CCCc1c(C(=O)OCC)[nH]c(-c2ccc(-c3[nH]c(C(=O)OCC)c(CCC)c3C(=O)OCC)s2)c1C(=O)OCC	15.7 µM (inactive)
O[C@]12c3ccccc3C1CCCCC2N1CCOCC1 (stereo not given in full)	> 100 µM (inactive)
O=C(O)CCCCn1ccc(=O)[nH]c1=O	> 100 µM (inactive)
NC1=Nc2ncccc2C(=O)NN1	> 10 µM (inactive)
COC(=O)C1CC2(CC3=C1CCCC3)OCCO2 (stereo not given)	> 100 µM (inactive)
CCCSc1nc(-c2ccc(OC)cc2)c(C#N)c(=O)n1C1OC(COC(C)=O)C(OC(C)=O)C(OC(C)=O)C1OC(C)=O (stereo not given)	> 100 µM (inactive)
CC(NNC(=O)c1ccncc1)c1ccc(F)cc1 (stereo not given)	> 100 µM (inactive)
C[C@]12C[C@H](c3ccccc3)Nc3ccccc3N1C(c1ccccc1)=NO2	> 100 µM (inactive)
COc1ccc(O[C@H](COCc2ccccc2)C[C@@H]2COC(C)(C)O2)cc1	> 100 µM (inactive)
CC(=O)Oc1ccc(C2COc3cc(OC(C)=O)c(OC(C)=O)cc3C2)cc1 (stereo not given)	14.7 µM (inactive)

---

Listed next: entries and their corresponding GI50.
test system: KM-20L2; experiment: NCI tumour cell line growth inhibition, 48 h
Activity calls are given as the source filed them. Cut-off read from the data, not from the text of the source: active = GI50 up to about 1.1 µM and inactive = higher.
metric_name: GI50

compound	experimental_target	metric_name	recorded_measurement
CCCCCCCCCCn1cccc1/C=C/c1ccc(/C=C/c2cccn2CCCCCCCCCC)cc1	KM-20L2	GI50	> 100 µM (inactive)
Cc1cc(C)nc(NS(=O)(=O)c2ccc(Nc3c4ccccc4nc4c(C(=O)Nc5ccc(S(=O)(=O)Nc6cc(C)on6)cc5)ccc(Cl)c34)cc2)n1	KM-20L2	GI50	19.5 µM (inactive)
O=C(O)c1cc(S(=O)(=O)N/N=C\c2c3ccccc3[n+]([O-])c3ccccc23)ccc1O	KM-20L2	GI50	13.3 µM (inactive)
CCOC(=O)C1=C(c2ccccc2)N(C(C)=O)Cc2ccccc21	KM-20L2	GI50	21.6 µM (inactive)
CCSc1nc(N2CCCC2)s[s+]1.[O-][Cl+3]([O-])([O-])[O-]	KM-20L2	GI50	55.6 µM (inactive)
C[C@]12CC[C@H](O)CC1=CC[C@@H]1C2CC[C@]2(C)Nc3c(cnn3-c3ccccc3)CC12 (stereo not given in full)	KM-20L2	GI50	1.38 µM (inactive)
COC(=O)N/N=C(\Cc1ccccc1)CN(C)C	KM-20L2	GI50	> 100 µM (inactive)
NC(CCCNCc1ccccc1)C(=O)O (stereo not given)	KM-20L2	GI50	> 100 µM (inactive)
O=C(O)CC(NC(=O)CP(=O)(O)O)C(=O)O (stereo not given)	KM-20L2	GI50	158 µM (inactive)
O=P(Oc1ccc2ccccc2c1)(N1CC1)N1CC1	KM-20L2	GI50	> 100 µM (inactive)
Cc1c2ccncc2c(C)c2c1[nH]c1ccc(OC(C)(C)C)cc12	KM-20L2	GI50	1.78 µM (inactive)
ClCCCN1CCCCC1CCl (stereo not given)	KM-20L2	GI50	> 100 µM (inactive)
N#CC1(CCCCl)CCCCC1	KM-20L2	GI50	> 100 µM (inactive)
Cc1ccc(NC(=O)C(=O)CC(=O)c2c(C)[n+]([O-])c3ccccc3[n+]2[O-])cc1	KM-20L2	GI50	30.8 µM (inactive)
c1ccc(Nc2nnc(-c3nsc4ccccc34)o2)cc1	KM-20L2	GI50	> 100 µM (inactive)
CCCCCCCCCCCc1c(O)c(=O)c2c(oc3c(=O)c(CCCCCCCCCCC)c(O)c(=O)c3n2-c2ccc(N(C)C)cc2)c1=O	KM-20L2	GI50	19.3 µM (inactive)
Clc1ccc(C2SCc3nc4ccccc4n32)c(Cl)c1 (stereo not given)	KM-20L2	GI50	21.4 µM (inactive)
COC(=O)C1=C(C(=O)OC)C2(CCCCCC2=O)OC1=O (stereo not given)	KM-20L2	GI50	> 100 µM (inactive)
CC(=O)Oc1ccc(C2COc3cc(OC(C)=O)c(OC(C)=O)cc3C2)cc1 (stereo not given)	KM-20L2	GI50	37.2 µM (inactive)
CC(O)C1OC(n2ccc(=O)[nH]c2=O)CC1n1cncn1 (stereo not given)	KM-20L2	GI50	> 100 µM (inactive)

---

# GI50 per record follows
system: U-251; experiment: NCI tumour cell line growth inhibition, 48 h
Active and inactive are the calls of the source. Rule as the data show it: active = GI50 up to about 1.1 µM and inactive = higher.
metric_name: GI50

molecule	recorded_measurement
O=C1Oc2cc3c(c4cccc1c24)OCN(c1ccc(Cl)cc1)C3	41.9 µM (inactive)
COC(=O)C1=C(C(=O)OC)C2(CCCCCC2=O)OC1=O (stereo unspecified)	> 100 µM (inactive)
NC(CC1=CS(=O)(=O)c2ccc(Cl)cc21)C(=O)O (stereo unspecified)	> 100 µM (inactive)
O=c1c2cc(I)ccc2nc(SCc2nncs2)n1Cc1ccccc1	16.9 µM (inactive)
CCOC(=O)C1=C(c2ccccc2)N(C(C)=O)Cc2ccccc21	17.2 µM (inactive)
CC(C)(C)c1cc(OCc2nnc3sc(-c4ccc(Cl)cc4)nn23)c(Cl)cc1OCc1nnc2sc(-c3ccc(Cl)cc3)nn12	5.79 µM (inactive)
O=C(O)C1C2C=CC(O2)C1C(=O)Nc1ncccn1 (stereo unspecified)	> 100 µM (inactive)
Cc1nc2c(=S)[nH]ncc2[nH]1	> 100 µM (inactive)
O=P(Oc1ccc2ccccc2c1)(N1CC1)N1CC1	27.6 µM (inactive)
CCOC(=O)CCNC(=O)c1cc(C)cc2c1Oc1c(cc(C)cc1C(=O)NCCC(=O)OCC)S2	62.5 µM (inactive)
NCc1cc(O)c(O)c(O)c1	> 100 µM (inactive)
CC1C(=O)C23OC[C@@]1(C)C1(O)CC[C@@H](C)[C@]21CC3=O (stereo partly specified)	> 100 µM (inactive)
Nc1nc(Cl)cc(NCC2(CO)CCCC2)n1	> 100 µM (inactive)
CN(C)CCNC(=O)c1cccc2nc3cccc(F)c3nc12	1.38 µM (inactive)
C/C(=N\Nc1nc2ccccc2s1)c1cccc[n+]1[O-]	47 µM (inactive)
CC(C)(C)[Si](C)(C)OCC1C=CC(n2cnc3c(N)ncnc32)O1 (stereo unspecified)	32.1 µM (inactive)

---

tested on: T47D; assay: NCI tumour cell line growth inhibition, 48 h
Activity calls are given as the source filed them. Cut-off read from the data, not from the text of the source: active = GI50 up to about 1.1 µM and inactive = higher.
Each record here notes measured GI50.

compound	GI50
CC(C)[Si]1(C(C)C)OCC2OC(n3ccc(=O)[nH]c3=O)C([Se]c3ccccc3)C2O[Si](C(C)C)(C(C)C)O1 (configuration not stated)	6.71 µM (inactive)
CCOc1ccnc2c(OC)c(C)c3nc4ccccc4nc3c12	3.31 µM (inactive)
c1ccc(C2=Nc3cccc4cccc(c34)N2)cc1	4.63 µM (inactive)
CCCCC1Cc2cc(OC)ccc2-c2nc3cc(OC)ccc3n21.CCCCC1Cc2cc(OC)ccc2-c2nc3ccc(OC)cc3n21 (configuration not stated)	13.1 µM (inactive)
CN(C(=O)[C@@H](NC(=O)OC(C)(C)C)c1ccccc1)[C@H]1CCCC[C@@H]1N1CCCC1	> 100 µM (inactive)
N#Cc1nc(/C=C/c2cccnc2)oc1N	> 100 µM (inactive)
CN(C)c1ccc(/C=C2\N=C(c3ccccc3)N(/N=C3\C(=O)Nc4ccccc43)C2=O)cc1	41.6 µM (inactive)
Cc1ccc(/C=N/Nc2cnccn2)s1	> 100 µM (inactive)
CNc1ccc(C)cc1S(=O)(=O)c1ccccc1[N+](=O)[O-]	29 µM (inactive)
COC(=O)CSc1nc2[nH]c(SC)c(C(N)=O)c2c(=O)n1-c1ccccc1	> 10 µM (inactive)
O=S1(=O)c2ccccc2Oc2ccc(C(/C=N/O)=N/O)cc21	9.08 µM (inactive)
CCOC(=O)c1cc2c(OC)cc(OC)cc2oc1=O	> 100 µM (inactive)
COC(=O)C(CSSC[C@H](N/C(C)=C/C(C)=O)C(=O)OC)N/C(C)=C/C(C)=O (some centres not stated)	16.6 µM (inactive)
O=C(/C=C/C=C/c1ccccc1)c1ccc2c(c1)CCCC2	16 µM (inactive)
COc1cc2c(cc1OC)C1Cc3cc(OC)c(OC)cc3C(C2)O1	58.5 µM (inactive)
CCCCc1ccc(Nc2nc(N)c3[nH]cnc3n2)cc1	35.1 µM (inactive)
O=C(/N=N/c1cccc(Cl)c1)NNc1cccc(Cl)c1	10.8 µM (inactive)
C=C1CCCCCCCCCCC12SCCC2CCCCSC (configuration not stated)	17.9 µM (inactive)
N#Cc1nc(-c2cccc(-c3nc(C#N)c(N)o3)n2)oc1N	> 100 µM (inactive)
O=[N+]([O-])/C(Cl)=C(\NCCN/C(C(Cl)=C(Cl)Cl)=C(/Cl)[N+](=O)[O-])C(Cl)=C(Cl)Cl	51.2 µM (inactive)
CC(NNC(=O)c1ccncc1)c1ccc(F)cc1 (configuration not stated)	> 100 µM (inactive)
N#Cc1c(-c2nc3ccccc3s2)c(=O)oc2cc(O)ccc12	17.7 µM (inactive)
